# Test system: 186277-243-T-J2-PDC spheroids with HUVEC/MSC, viability;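 further: compound exposure lasted seven days before readout; 100% = DMSO vehicle control wells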
# PROCEDURE_DETAILS: Anticancer human tumor 186277-243-T-J2-PDC patient-derived colon adenocarcinoma cell line growth inhibition [CLK]
# CONDITION_PARAMETERS: second compound 0.1 µM; first compound 0.00949 µM; hits give low values
Labelling: viability, T/C reported below 60% becomes 1; at or above becomes -1.

Prompt line: State whether 60% exceeds viability, T/C recorded for C=CC(=O)Nc1cc(Nc2nccc(-c3cn(C)c4ccccc34)n2)c(OC)cc1N(C)CCN(C)C + CNC(=O)c1ccc(Nc2nc(OC3CCCC3)c3c(-c4ccc5nc(C)oc5c4)c[nH]c3n2)c(OC)c1 .
Response line: -1

Prompt line: Confirm or reject: viability, T/C of NC(=O)C(=Cn1cnc(-c2cc(C(F)(F)F)cc(C(F)(F)F)c2)n1)c1cncnc1 + CNC(=O)c1ccc(Nc2nc(OC3CCCC3)c3c(-c4ccc5nc(C)oc5c4)c[nH]c3n2)c(OC)c1 lies strictly below 60%
Response line: 1

Prompt line: Given CC(C)CC(NC(=O)C(Cc1ccccc1)NC(=O)c1cnccn1)B(O)O (stereo unspecified) + CN1CCN(c2cc(C(=O)Nc3cc4cc(-c5cnn(C)c5)ccc4cn3)ccn2)CC1 , is recorded viability, T/C strictly lower than 60%?
Response line: 1

Prompt line: Take the molecule C=CC(=O)Nc1cc(Nc2nccc(-c3cn(C)c4ccccc34)n2)c(OC)cc1N(C)CCN(C)C + CN1CCN(c2cc(C(=O)Nc3cc4cc(-c5cnn(C)c5)ccc4cn3)ccn2)CC1 and say whether its viability, T/C is less than 60%.
Response line: -1

Consider the record given below.
Prompt line: Decide: viability, T/C of CC(C)CC(NC(=O)C(Cc1ccccc1)NC(=O)c1cnccn1)B(O)O (stereo unspecified) + CNC(=O)c1ccc(Nc2nc(OC3CCCC3)c3c(-c4ccc5nc(C)oc5c4)c[nH]c3n2)c(OC)c1 strictly below 60%?
Response line: 1
